# Experimental target: Tyrosine--tRNA ligase (Staphylococcus aureus)
# Experiment notes: Inhibitory activity against Staphylococcus aureus tyrosyl tRNA synthetase (YRS) using aminoacylation assay
Measured endpoint: pIC50
The scale used: pIC50 is minus the common logarithm of the concentration in molar units.

Answer with reported pIC50 of `N[C@@H](Cc1ccc(O)cc1)C(=O)N[C@@H](C(=O)O)[C@@H]1OC[C@H](O)[C@H](O)[C@H]1O`
6.59
